- System: UACC-257 melanoma
- ASSAY METHOD TEXT: NCI tumour cell line growth inhibition, 48 h
For each entry below, report its TGI value.

Worked set:
O=c1cc(-c2c[nH]c3ccccc23)[nH]c2cc3c(cc12)OCO3    > 100 µM
O=C(CCCCCC(=O)N1CC(CCl)c2ccc([N+](=O)[O-])cc21)N1CC(CCl)c2ccc([N+](=O)[O-])cc21 (centres undefined)    > 100 µM
S=c1[nH]nc(Cc2ccccc2)c(=S)[nH]1    > 100 µM

The following compounds each have a reported value; give each one's TGI.
1. O=[N+]([O-])c1ccc(Cl)c(C2CC(c3cccc4ccccc34)=Nc3ccccc3S2)c1 (centres undefined)
2. C/C(=C\c1ccccc1)C(=O)NCc1ccc(C(=O)NCCc2ccccc2)cc1
3. CSc1c(C#N)c(N)nc2c(N=Nc3ccc(Br)cc3)c(N)nn12
4. COc1cc2cc(C(=O)N3CC(CCl)c4c3cc(NC(=O)OCc3ccc([N+](=O)[O-])cc3)c3ccccc43)[nH]c2c(OC)c1OC (centres undefined)
5. Brc1ccc2c3c1[C@H]1O[C@H]1c1cccc(c1-3)[C@@H]1O[C@H]21

1. > 100 µM
2. > 100 µM
3. 21.4 µM
4. > 100 µM
5. 34.2 µM

Item under review: O=[N+]([O-])c1ccc(C(Nc2ccccc2)P(c2ccccc2)c2ccccc2)cc1 (centres undefined) . Reported TGI?
> 100 µM
